# Lookup of reported rank in the VEGFR-3-Ba/F3 bioassay keyed by entry
Target: T1, Source 2 VEGF-D, purified recombinant human VEGF-D monomer (R&D Systems, Catalog Number 622-VD/CF) (human, UniProt O43915 93-201)
T1 sequence: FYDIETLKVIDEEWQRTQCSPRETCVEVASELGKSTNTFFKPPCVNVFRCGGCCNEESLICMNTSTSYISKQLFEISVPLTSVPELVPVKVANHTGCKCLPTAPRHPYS
Assay: cell-based or functional assay
Report the figure in rank without appending any unit label.

- binder: "humanized IgG antibody derived from clone HW78 (antibody, V domains shown, IgG) VH: QVQLVQSGAEVKQPGASVKVSCKARGYTFTGYNMYWVRQAPGQGLEWMGYIDPYNGDTTYNQKFKGRVTMTTDTSTGTAYMKLRSLRSDDTAVYYCARTSYYGGMDYWGRGTLVTVAS VL: DIVMTQTPLSSPVTLGQPASISCRSSQSLVHSNGNTYLHWLQQRPGQPPRLLIYKVSNRFSGVPDRFSGSGAGTDFTLKISRVEAEDVGVYYCSQSTHVPRTFGQGTKLEIKR"
  reading-unit: "rank"
  rank in the VEGFR-3-Ba/F3 bioassay: 7

Proceed to the following item.
GET /value?item= humanized IgG antibody derived from clone HX28 (antibody, V domains shown, IgG) VH: QVQLVQSGAKVKQPGASVKASCKASGYTFTGYNMYWVRQAPGQGLEWMGYIDPYSGDTTYNQKFKGRVTMTTDTSTSTAYMELRSLRSDDTAVYYCARTSYYGGMDYWGRGTLVTVAS VL: DIVMTQTPLSSPVTLGQPASISCRSSQSLVHSNGNTYLHWLQQRPGQPPRLLIYKVSNRFSGVPGRFSGSGAGTDFTLKISRVEAEDVGVYYCSQSTHVPRTFGQGTKLEIKR &field=rank in the VEGFR-3-Ba/F3 bioassay returns 1
